Test system: Staphylococcus aureus ICB 25701
ASSAY DETAILS: MIC, serial agar dilution
Format: cell-based
STATED CONDITIONS: ICB25701; Staphylococcus aureus ICB 25701; Iso-Sensitest Agar, 37° C., approximately 20 hours; read-out: MIC
Exercise: state measured MIC for each of the compounds provided.
# value in µg/mL; strip the unit string

I am curious: what MIC value has been reported for `C=Cc1c(F)c(N2CCN(C)CC2)c(F)c2c1c(=O)c(C(=O)O)cn2C1CC1` ?
64

I am curious: what MIC value has been reported for C=Cc1c(F)c(N2CCC(N)C2)c(F)c2c1c(=O)c(C(=O)O)cn2C1CC1.Cl (centres unmarked) ?
2

I am curious: what MIC value has been reported for CCc1c(F)c(N2CCN(C)CC2)c(F)c2c1c(=O)c(C(=O)O)cn2C1CC1 [Compound K, reference compound] ?
64

I am curious: what MIC value has been reported for C=Cc1c(F)c(N2CC3CC=CC(NC)C3C2)c(F)c2c1c(=O)c(C(=O)O)cn2C1CC1 (centres unmarked) ?
0.03

I am curious: what MIC value has been reported for C=Cc1c(F)c(N2CC3CC=CC(N)C3C2)c(F)c2c1c(=O)c(C(=O)O)cn2C1CC1 (centres unmarked) ?
0.03

---

Tested on: Staphylococcus aureus 133
ASSAY DETAILS: MIC, serial agar dilution
Assay type: cell-based
STATED CONDITIONS: Staphylococcus aureus 133; Iso-Sensitest Agar, 37° C., approximately 20 hours; read-out: MIC
Where a name gives a salt, the structure may show the parent alone.
READOUT KIND: MIC

I am curious: what MIC value has been reported for C=Cc1c(F)c(N2CCC(N)C2)c(F)c2c1c(=O)c(C(=O)O)cn2C1CC1.Cl (stereo not shown) ?
0.03 µg/mL

I am curious: what MIC value has been reported for C=Cc1c(F)c(N2CC3CCOC3(CN)C2)c(F)c2c1c(=O)c(C(=O)O)cn2C1CC1 (stereo not shown) [Compound 11, hydrochloride] ?
0.015 µg/mL

I am curious: what MIC value has been reported for CCc1c(F)c(N2CCN(C)CC2)c(F)c2c1c(=O)c(C(=O)O)cn2C1CC1 [Compound K, reference compound] ?
16 µg/mL

I am curious: what MIC value has been reported for C=Cc1c(F)c(N2CC3CC=CC(N)C3C2)c(F)c2c1c(=O)c(C(=O)O)cn2C1CC1 (stereo not shown) ?
≤ 0.015 µg/mL

I am curious: what MIC value has been reported for C=Cc1c(F)c(N2CC3CC=CC(NC)C3C2)c(F)c2c1c(=O)c(C(=O)O)cn2C1CC1 (stereo not shown) ?
≤ 0.015 µg/mL

I am curious: what MIC value has been reported for C=Cc1c(F)c(N2C[C@@H]3CCCN[C@@H]3C2)c(F)c2c1c(=O)c(C(=O)O)cn2C1CC1 [Compound 3] ?
0.03 µg/mL

I am curious: what MIC value has been reported for C=Cc1c(F)c(N2C[C@@H]3CCCN[C@@H]3C2)c(F)c2c1c(=O)c(C(=O)O)cn2C1CC1 (relative stereo) [Compound 2] ?
0.06 µg/mL

---

Exercise: state measured MIC for each of the molecules provided.
System: Enterobater aer.ICB 5240
ASSAY DETAILS: MIC, serial agar dilution
Type: cell-based
STATED CONDITIONS: Enterobater aer.ICB 5240; Iso-Sensitest Agar, 37° C., approximately 20 hours; read-out: MIC
# value in µg/mL; strip the unit string

I am curious: what MIC value has been reported for C=Cc1c(F)c(N2CC3CC=CC(N)C3C2)c(F)c2c1c(=O)c(C(=O)O)cn2C1CC1 (stereo not shown) [Compound 6] ?
4

I am curious: what MIC value has been reported for C=Cc1c(F)c(N2C[C@@H]3CCCN[C@@H]3C2)c(F)c2c1c(=O)c(C(=O)O)cn2C1CC1 (relative stereo) [Compound 2] ?
16

I am curious: what MIC value has been reported for C=Cc1c(F)c(N2CCC(N)C2)c(F)c2c1c(=O)c(C(=O)O)cn2C1CC1.Cl (stereo not shown) [Compound 5] ?
4

---

Exercise: state measured MIC for each of the molecules provided.
System: Enterobater cloaceae 2427
ASSAY DETAILS: MIC, serial agar dilution
Format: cell-based
STATED CONDITIONS: Enterobater cloaceae 2427; Iso-Sensitest Agar, 37° C., approximately 20 hours; read-out: MIC
Where a name gives a salt, the structure may show the parent alone.

I am curious: what MIC value has been reported for C=Cc1c(F)c(N2CC3CC=CC(NC)C3C2)c(F)c2c1c(=O)c(C(=O)O)cn2C1CC1 (stereo not drawn) ?
0.125 µg/mL

I am curious: what MIC value has been reported for C=Cc1c(F)c(N2CC3CCOC3(CN)C2)c(F)c2c1c(=O)c(C(=O)O)cn2C1CC1 (stereo not drawn) [Compound 11, hydrochloride] ?
0.125 µg/mL

I am curious: what MIC value has been reported for C=Cc1c(F)c(N2C[C@@H]3CCCN[C@@H]3C2)c(F)c2c1c(=O)c(C(=O)O)cn2C1CC1 (relative stereo) [Compound 2] ?
0.125 µg/mL

I am curious: what MIC value has been reported for C=Cc1c(F)c(N2C[C@@H]3CCCN[C@@H]3C2)c(F)c2c1c(=O)c(C(=O)O)cn2C1CC1 [Compound 3] ?
0.06 µg/mL

I am curious: what MIC value has been reported for C=Cc1c(F)c(N2CC3CC=CC(N)C3C2)c(F)c2c1c(=O)c(C(=O)O)cn2C1CC1 (stereo not drawn) ?
0.125 µg/mL

I am curious: what MIC value has been reported for C=Cc1c(F)c(N2CCC(N)C2)c(F)c2c1c(=O)c(C(=O)O)cn2C1CC1.Cl (stereo not drawn) ?
≤ 0.015 µg/mL
